Overview of recorded inhibition for various molecules
target: C-C chemokine receptor type 2 (Homo sapiens, UniProt P41597); experiment: Displacement of [125I]CCL2 from CCR2 in human U2OS cell membranes at 1 uM by radioligand displacement assay
Sequence (P41597 whole entry, looked up): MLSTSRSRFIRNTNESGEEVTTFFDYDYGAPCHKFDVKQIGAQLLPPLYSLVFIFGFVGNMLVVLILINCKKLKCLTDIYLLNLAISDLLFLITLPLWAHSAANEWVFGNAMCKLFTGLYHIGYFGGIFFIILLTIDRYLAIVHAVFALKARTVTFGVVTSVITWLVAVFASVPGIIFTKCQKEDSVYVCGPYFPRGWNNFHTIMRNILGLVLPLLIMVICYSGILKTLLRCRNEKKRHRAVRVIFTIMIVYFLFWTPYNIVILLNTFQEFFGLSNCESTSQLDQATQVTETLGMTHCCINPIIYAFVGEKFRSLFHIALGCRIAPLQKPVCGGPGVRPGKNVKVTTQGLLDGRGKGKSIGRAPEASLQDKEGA
Response body: numeric value in %, unit text excluded.

molecule: O=C(CNC(=O)c1cccc(C(F)(F)F)c1)NC1CCN(C2CCc3ccccc3C2)CC1 (stereo not given)
measured.target: C-C chemokine receptor type 2 (Homo sapiens, UniProt P41597)
inhibition [%]: 24

Input: Give C-C chemokine receptor type 2 (Homo sapiens, UniProt P41597) inhibition for the following molecule: O=C(CNC(=O)c1cccc(C(F)(F)F)c1)NC1CCN(CCCc2ccccc2)CC1
Output: 6

Input: # return inhibition of COc1cccc(OC)c1C1CCC(N2CCC(NC(=O)CNC(=O)c3cccc(C(F)(F)F)c3)CC2)CC1 (stereo not given) (system: C-C chemokine receptor type 2 (Homo sapiens, UniProt P41597))
Output: 42

Input: State measured inhibition of the molecule O=C(CNC(=O)c1cccc(C(F)(F)F)c1)NC1CCN(C2CCCC(c3ccccc3)C2)CC1 (stereo not given) with C-C chemokine receptor type 2 (Homo sapiens, UniProt P41597).
Output: 10

Input: Please report inhibition with C-C chemokine receptor type 2 (Homo sapiens, UniProt P41597) for item Cc1ccc(C2CCC(N3CCC(NC(=O)CNC(=O)c4cccc(C(F)(F)F)c4)CC3)CC2)cc1 (stereo not given) .
Output: 38

* * *

target: C-C chemokine receptor type 2 (Homo sapiens, UniProt P41597); assay: Displacement of [125I]CCL2 from CCR2 in human U2OS cell membranes at 1 uM by radioligand displacement assay
// values below are reported inhibition
Value expressed in %; do not type the unit.

Recorded inhibition, per entry:
compound: Cc1ccccc1C1CCC(N2CCC(NC(=O)CNC(=O)c3cccc(C(F)(F)F)c3)CC2)CC1 (stereo not given)
inhibition, %: 26

compound: O=C(CNC(=O)c1cccc(C(F)(F)F)c1)NC1CCN(Cc2ccc(Cl)cc2)CC1
inhibition, %: 0

compound: COc1cc(OC)cc(C2CCC(N3CCC(NC(=O)CNC(=O)c4cccc(C(F)(F)F)c4)CC3)CC2)c1 (stereo not given)
inhibition, %: 41

compound: O=C(CNC(=O)c1cccc(C(F)(F)F)c1)NC1CCN(Cc2cn(-c3ccccc3)nn2)CC1
inhibition, %: 12

Then this compound:
Input: Specify reported inhibition for the compound shown: O=C(NCC(=O)N1CCC(NC2CCC(c3ccccc3)CC2)CC1)c1cccc(C(F)(F)F)c1 (stereo not given)
Output: 31

* * *

target: C-C chemokine receptor type 2 (Homo sapiens)
measurement.label: pKi
Units for pKi: none; it is -log10 of a concentration expressed in mol/L.

Input: Write pKi of O=C(CNC(=O)c1cccc(C(F)(F)F)c1)NC1CCN(C2CCC(c3ccc4c(c3)OCO4)CC2)CC1 (stereo unspecified) ; system used: C-C chemokine receptor type 2 (Homo sapiens)
Output: 7.05
